Origin of values: PubChem BioAssay AID1159580

assay: chemical genetic growth profiling, strain panel (AID 1159580);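 also: tested at 20 µM; growth read once vehicle control cultures reached saturation at 30 °C; 1 = growth at the plate median or of vehicle wells; lower values mean less growth of the strain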; settings: S. cerevisiae deletion strains, growth OD, locus YLR330W, strain CHS5, hits give low values
Screen size: about 5,500 compounds; about 2,000 (36%) were called active. Inconclusive results (about 18%) are left out. This is one part of the list.
MEASURED_QUANTITY: normalized growth
# output: bare number, no unit

**Q:** Give normalized growth for the following molecule: C[C@H]1OC(n2cc(F)c(=O)[nH]c2=O)C(O)[C@@H]1O (stereo partly drawn)
**A:** 0.994

**Q:** Give normalized growth for the following molecule: CC(=O)NC1SCCC1=O (stereo not drawn)
**A:** 1.01

**Q:** Give normalized growth for the following molecule: ClC1=C(Cl)C2(Cl)C3C4C=CC(C4)C3C1(Cl)C2(Cl)Cl (stereo not drawn)
**A:** 1

**Q:** Give normalized growth for the following molecule: COc1cc2c(cc1OC)C1C(=O)c3c(O)cc4c(c3OC1CO2)C=CC(C)(C)O4 (stereo not drawn)
**A:** 0.987

**Q:** Give normalized growth for the following molecule: CC(N)CCCC(C)(C)O (stereo not drawn)
**A:** 1.01

**Q:** Give normalized growth for the following molecule: CC(C)CC(NC(=O)C(Cc1ccccc1)NC(=O)CNC(=O)CNC(=O)C(N)Cc1ccc(O)cc1)C(=O)O (stereo not drawn)
**A:** 0.986

**Q:** Give normalized growth for the following molecule: S=c1nc[nH]c2nc[nH]c12
**A:** 0.992

**Q:** Give normalized growth for the following molecule: CC1(C)C(C=C(Cl)Cl)C1C(=O)OC(C#N)c1cccc(Oc2ccccc2)c1 (stereo not drawn)
**A:** 0.995

**Q:** Give normalized growth for the following molecule: C[N+](C)(C)CCCCCC[N+](C)(C)C
**A:** 0.99

**Q:** Give normalized growth for the following molecule: CCOC(=O)CCC(=O)O[C@H]1[C@H](O[C@@H]2[C@@H](C)[C@H](O[C@H]3C[C@@](C)(OC)[C@@H](O)[C@H](C)O3)[C@@H](C)C(=O)O[C@H](CC)[C@@](C)(O)[C@H](O)[C@@H](C)C(=O)[C@H](C)C[C@@]2(C)O)O[C@H](C)C[C@@H]1N(C)C
**A:** 0.985

**Q:** Give normalized growth for the following molecule: CC(=O)N[C@@H](CC(C)C)C(=O)O
**A:** 0.972

**Q:** Give normalized growth for the following molecule: CC(N)C(=O)OC(C)(C)Cc1ccc(Cl)cc1 (stereo not drawn)
**A:** 0.988

**Q:** Give normalized growth for the following molecule: CN[C@@H](C)[C@@H](O)c1ccccc1
**A:** 0.987

* * *

Would you kindly list normalized growth for each of these molecules?
experiment: chemical genetic growth profiling, strain panel (AID 1159580);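 also: tested at 20 µM; growth read once vehicle control cultures reached saturation at 30 °C; 1 = growth at the plate median or of vehicle wells; lower values mean less growth of the strain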; details: S. cerevisiae deletion strains, growth OD, locus YPR163C, strain tif3, hits give low values
About 2,000 (36%) of roughly 5,500 compounds were called active. Inconclusive results (about 18%) are left out. Some of the results follow.
# output: bare number, no unit

**Q:** Give normalized growth for the following molecule: CCOC(=O)C1(O)Oc2cc(OC)cc(OC)c2C(=O)C1c1ccccc1 (stereo not drawn)
**A:** 0.984

**Q:** Give normalized growth for the following molecule: CC(C(=O)O)c1cccc(Oc2ccccc2)c1 (stereo not drawn)
**A:** 0.986

**Q:** Give normalized growth for the following molecule: COc1cc2c(cc1OC)C1C(=O)c3c(OC)cc4c(c3OC1CO2)CCC(C)(C)O4 (stereo not drawn)
**A:** 0.976

**Q:** Give normalized growth for the following molecule: c1ccc(N=Nc2ccccc2)cc1
**A:** 1.04

**Q:** Give normalized growth for the following molecule: O=C(O)c1cc2ccccc2c(Cc2c(O)c(C(=O)O)cc3ccccc23)c1O
**A:** 0.995

**Q:** Give normalized growth for the following molecule: CC[C@H](/C=C/C(C)C1CCC2C3CCC4=CC(=O)CC[C@]4(C)C3CC[C@]12C)C(C)C (stereo partly drawn)
**A:** 1.01

**Q:** Give normalized growth for the following molecule: CC(Oc1ccccc1)C(=O)N[C@@H]1C(=O)N2[C@@H]1SC(C)(C)[C@@H]2C(=O)O (stereo partly drawn)
**A:** 1.04

**Q:** Give normalized growth for the following molecule: CS(=O)(=O)c1ccc(C2=C(c3ccccc3)C(=O)OC2)cc1
**A:** 0.989

**Q:** Give normalized growth for the following molecule: CCOC(=O)[C@H](CCc1ccccc1)N[C@H]1CCc2ccccc2N(CC(=O)O)C1=O
**A:** 0.968

**Q:** Give normalized growth for the following molecule: CC1=C(/C=C/C(C)=C/C=C/C(C)=C/C=C/C=C(C)/C=C/C=C(C)/C=C/C2=C(C)C(=O)C(O)CC2(C)C)C(C)(C)CC(O)C1=O (stereo not drawn)
**A:** 0.977

**Q:** Give normalized growth for the following molecule: CC(C(=O)O)c1ccc(-c2ccccc2)c(F)c1 (stereo not drawn)
**A:** 0.957

**Q:** Give normalized growth for the following molecule: O=C(O)c1cc2ccccc2[nH]1
**A:** 1.01

**Q:** Give normalized growth for the following molecule: CCC(=O)O[C@H]1CCC2C3CCC4=CC(=O)CC[C@]4(C)C3CC[C@@]21C (stereo partly drawn)
**A:** 0.933
